Biological target: T1, human RANKL protein (human, UniProt O14788 140-317, limits assumed)
T1 sequence (looked up): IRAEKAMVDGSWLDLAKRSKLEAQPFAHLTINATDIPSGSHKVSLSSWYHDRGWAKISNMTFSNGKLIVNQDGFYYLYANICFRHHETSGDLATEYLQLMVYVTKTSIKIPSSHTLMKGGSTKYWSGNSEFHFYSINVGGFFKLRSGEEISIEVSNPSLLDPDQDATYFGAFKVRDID
Test: competition ELISA: RANKL (0.5 ug/ml) pre-incubated with the antibody, then binding to coated human RANK (8 ug/ml) detected; blocked partner RANK
Assignment: determine reported IC50 for the given binders.
Write the value in µg/mL as a bare number.

Enquiry: Could you share which IC50 value was measured for clone 7 rabbit anti-RANKL antibody (antibody, V domains shown) VH: QEQLKESGGGLVTPGGTLTLTCTASGFSLTTNGMSWVRQAPGKGLEWIGYIYSGGSPYYANWAKGRFTISKTSSTTVDLKMTSLTTEDTATYFCARHLSGGGWYLDIWGPGTLVTVSL VL: DMTQTPASVEVAVGGTVTINCQASQNIGSNLAWYQQKPGQPPKLLIYGASTLASGVSSRFKGSGSGTQFTFTISDVECTDPATYYCQQAYSISNVDNPFGGGTEVVVK ?
Return: 0.0699

Enquiry: Could you share which IC50 value was measured for clone 130 rabbit anti-RANKL antibody (antibody, V domains shown) VH: QSVEESGGRLVTPGTPLTLTCTVSGFSLSSGVVSWVRQAPGKGLEWIGYAWSGGATYYASWAKGRFTISKSSTTVDLKITSPTTADTATYFCARGYNGMDPWGPGTLVTVSS VL: DMTQTPASVEVAVGGTVTIKCQASQNIGSNLAWYQQKPGQPPKLLIYKASTLASGVPSRFRGSGSGTEFTLAISDLECADAATYYCQQGYTTKDLVNPFGGGTEVVVK ?
Return: 0.078

Enquiry: Could you share which IC50 value was measured for clone 68 rabbit anti-RANKL antibody (antibody, V domains shown) VH: QEQLKESGGGLVKPDESLTLTCTASGFSLSSNGMSWARQAPGKGLEWIGYIYAGSSPYYANWAKGRFTISKTSSTTVDLKVTSLTTEDTATYFCARHASGGGWYLAIWGPGTLVTVSL VL: DMIQTPASVEVAVGGTVTIGCQASQSIGSNLGWYQQKPGQPPKLLIYSASTLASGVSSRFKGSGSGTEFTLTISDVECDDAATYYCQQAYSVSNVDNAFGGGTEVVVK ?
Return: 0.0766

This collection of values is drawn from patent US20160032001A1.
